- study-target: endothelin receptor (membrane of smooth muscle tissue of porcine aorta) (Sus scrofa, UniProt Q29010)
- Construct: from tissue; host or cells: smooth muscle tissue of porcine aorta (membrane fraction)
- Sequence (Q29010 21-427): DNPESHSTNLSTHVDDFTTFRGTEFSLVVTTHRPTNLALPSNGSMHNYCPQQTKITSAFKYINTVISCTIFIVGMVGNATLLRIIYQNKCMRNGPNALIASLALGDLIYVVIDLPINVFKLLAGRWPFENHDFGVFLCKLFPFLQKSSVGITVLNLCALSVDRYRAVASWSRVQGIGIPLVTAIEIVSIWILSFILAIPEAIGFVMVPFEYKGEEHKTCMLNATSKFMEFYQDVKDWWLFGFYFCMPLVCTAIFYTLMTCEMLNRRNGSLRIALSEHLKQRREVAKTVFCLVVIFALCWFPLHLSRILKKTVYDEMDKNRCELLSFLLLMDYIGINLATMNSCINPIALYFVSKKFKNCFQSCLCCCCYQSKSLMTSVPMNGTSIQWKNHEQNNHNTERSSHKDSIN
- protocol-summary: Endothelin binding inhibition test (125I-endothelin-1, porcine aorta smooth muscle membrane)
- settings: 1.1 μM of the test compound; porcine aorta smooth muscle membrane; 25° C, 4 hours; read-out: 125I-endothelin-1 binding inhibition, Inhibition (%)
Numbered stars: 1 amine (or outer) side, 2 acyl side, 3 side chain; on linkers, the order of the positions; unused ones are H or OH. Square brackets hold non-standard residues; d marks the D form. Peptide text beside a SMILES is read from it. X6 = COC(=O)Cn1cc(C[C@@H](N[*:1])C(=O)[*:2])c2ccccc21; βAla = NCCC(=O)O
result-type: inhibition at 1.1 µM (%)

[A] CC(C)C[C@@H]1NC(=O)[C@@H](c2cccs2)NC(=O)CN(CC(=O)O)C(=O)[C@@H](CC(=O)O)NC(=O)[C@@H](Cc2c[nH]c3ccccc23)NC1=O [Example 83, cyclo(-DTrp-DAsp-CmGly-DThg-Leu-)]
[B] CC(C)C[C@@H]1NC(=O)[C@@H](C(C)C)NC(=O)CCNC(=O)[C@@H](CC(=O)O)NC(=O)[C@@H](Cc2c[nH]c3ccccc23)NC1=O [Example 66, cyclo(-DTro-DAsp-β-Ala-DVal-Leu-)] (cyclo(L[dW][dD][βAla][dV]))
*Q* For the pair A and B , which entry has the numerically smaller recorded inhibition at 1.1 µM? Please identify the chosen entry by its label.
*A* B
(B: 38%, A: 82%)

[a] CC[C@@H](C)[C@H]1NC(=O)[C@@H]2CCCN2C(=O)[C@@H](CC(=O)O)NC(=O)[C@@H](Cc2c[nH]c3ccccc23)NC(=O)[C@H](CC(C)C)NC1=O [Example 31, cyclo(-DTrp-DAsp-Pro-DIle-Leu-)] (cyclo(L[dW][dD]P[dI]))
[b] COC(=O)Cn1cc(C[C@H]2NC(=O)[C@H](CC(C)C)NC(=O)[C@@H](C(C)C)NC(=O)[C@@H]3CCCN3C(=O)[C@@H](CC(=O)O)NC2=O)c2ccccc21 [Example 90] (cyclo(L[X6][dD]P[dV]))
*Q* Rank a against b by their inhibition at 1.1 µM values and give the higher one. Please identify the chosen entry by its label.
*A* a
(a: 80%, b: 35%)

[1] CC(C)C[C@@H]1NC(=O)[C@@H](C(C)C)NC(=O)[C@H](CS)NC(=O)[C@@H](CC(=O)O)NC(=O)[C@@H](Cc2c[nH]c3ccccc23)NC1=O [Example 25, cyclo(-DTrp-DAsp-Cys-DVal-Leu-)] (cyclo(C[dV]L[dW][dD]))
[2] CC(C)[C@H]1NC(=O)[C@H](C)NC(=O)[C@@H](CC(=O)O)NC(=O)[C@@H](Cc2c[nH]c3ccccc23)NC(=O)[C@@H]2CCCN2C1=O [Example 39, cyclo(-DTrp-DAsp-Ala-DVal-Pro-)] (cyclo(A[dV]P[dW][dD]))
*Q* For the pair 1 and 2 , which entry has the numerically smaller recorded inhibition at 1.1 µM? Please identify the chosen entry by its label.
*A* 2
(2: 18%, 1: 74%)

====

- study-target: endothelin receptor (membrane of smooth muscle tissue of porcine aorta) (Sus scrofa, UniProt Q29010)
- Construct: from tissue; host or cells: smooth muscle tissue of porcine aorta (membrane fraction)
- protocol-summary: Endothelin binding inhibition test (125I-endothelin-1, porcine aorta smooth muscle membrane)
- settings: 1.1 μM of the test compound; porcine aorta smooth muscle membrane; 25° C, 4 hours; read-out: 125I-endothelin-1 binding inhibition, Inhibition (%)
Numbered stars: 1 amine (or outer) side, 2 acyl side, 3 side chain; on linkers, the order of the positions; unused ones are H or OH. Square brackets hold non-standard residues; d marks the D form. Peptide text beside a SMILES is read from it. X2 = CNC(=O)Cn1cc(C[C@@H](N[*:1])C(=O)[*:2])c2ccccc21; dPhg = N[C@@H](C(=O)O)c1ccccc1
result-type: inhibition at 1.1 µM (%)

Some solved entries appear below for comparison.
molecule | inhibition at 1.1 µM [%]
CC(C)C[C@@H]1NC(=O)[C@@H](c2ccccc2)NC(=O)[C@@H]2CCCN2C(=O)[C@@H](CC(=O)O)NC(=O)[C@@H](Cc2c[nH]c3ccccc23)NC1=O [Example 34, cyclo(-DTrp-DAsp-Pro-DPhg-Leu-)] (cyclo(L[dW][dD]P[dPhg])) | 83
CC(C)C[C@@H]1NC(=O)[C@@H](CC(=O)O)NC(=O)[C@@H](Cc2c[nH]c3ccccc23)NC(=O)[C@H](CC(C)C)NC(=O)[C@@H](C(C)C)NC1=O [Example 6, cyclo(-DTrp-DAsp-Leu-DVal-Leu-)] (cyclo(L[dV]L[dW][dD])) | 72

[I] CC(C)C[C@@H]1NC(=O)[C@@H](C(C)C)NC(=O)[C@H](CCC(N)=O)NC(=O)[C@@H](CC(=O)O)NC(=O)[C@@H](Cc2c[nH]c3ccccc23)NC1=O [Example 21, cyclo(-DTrp-nAsp-Gln-DVal-Leu-)] (cyclo(L[dW][dD]Q[dV]))
[II] CNC(=O)Cn1cc(C[C@H]2NC(=O)[C@H](CC(C)C)NC(=O)[C@@H](C(C)C)NC(=O)[C@@H]3CCCN3C(=O)[C@@H](CC(=O)O)NC2=O)c2ccccc21 [Example 92] (cyclo(L[X2][dD]P[dV]))
*Q* For the pair I and II , which entry has the numerically smaller recorded inhibition at 1.1 µM? Please identify the chosen entry by its label.
*A* II

====

- study-target: endothelin receptor (membrane of smooth muscle tissue of porcine aorta) (Sus scrofa)
- Construct: from tissue; host or cells: smooth muscle tissue of porcine aorta (membrane fraction)
- protocol-summary: Endothelin binding inhibition test (125I-endothelin-1, porcine aorta smooth muscle membrane)
- settings: 1.1 μM of the test compound; porcine aorta smooth muscle membrane; 25° C, 4 hours; read-out: 125I-endothelin-1 binding inhibition, Inhibition (%)
Square brackets hold non-standard residues; d marks the D form. Peptide text beside a SMILES is read from it. * marks the point of attachment. dGly(2-thienyl) = N[C@@H](C(=O)O)c1cccs1; NMeA = CN[C@@H](C)C(=O)O; Nle = CCCC[C@H](N)C(=O)O; Aib = CC(C)(N)C(=O)O; Sar = CNCC(=O)O; Moc = COC(=O)*; For = O=C*
result-type: inhibition at 1.1 µM (%)

molecule | units-text | result
CC(C)C[C@@H]1NC(=O)C(C)(C)NC(=O)[C@@H]2CCCN2C(=O)[C@@H](CC(=O)O)NC(=O)[C@@H](Cc2c[nH]c3ccccc23)NC1=O [Example 62, cyclo(-DTrp-nAsp-Pro-Aib-Leu-)] (cyclo([Aib]L[dW][dD]P)) | % | 60
COC(=O)n1cc(C[C@H]2NC(=O)[C@H](CC(C)C)NC(=O)[C@@H](C(C)C)NC(=O)[C@@H]3CCCN3C(=O)[C@@H](CC(=O)O)NC2=O)c2ccccc21 [Example 86, cyclo(-DTrp(COOCH3)-DAsp-Pro-DVal-Leu-)] (cyclo(L[dW](Moc)[dD]P[dV])) | % | 90
CC(C)C[C@@H]1NC(=O)[C@@H](C(C)C)NC(=O)[C@H](C)N(C)C(=O)[C@@H](CC(=O)O)NC(=O)[C@@H](Cc2c[nH]c3ccccc23)NC1=O [Example 13, cyclo(-DTrp-DAsp-MeAla-DVal-Leu-)] (cyclo(L[dW][dD][NMeA][dV])) | % | 85
CC(C)C[C@@H]1NC(=O)[C@@H](c2cccs2)NC(=O)CN(C)C(=O)[C@@H](CC(=O)O)NC(=O)[C@@H](Cc2c[nH]c3ccccc23)NC1=O [Example 72, cyclo(-DTrp-DAsp-Sar-DThg-Leu-)] (cyclo(L[dW][dD][Sar][dGly(2-thienyl)])) | % | 79
CC(C)C[C@@H]1NC(=O)[C@@H](C(C)C)NC(=O)[C@H]([C@@H](C)O)NC(=O)[C@@H](CC(=O)O)NC(=O)[C@@H](Cc2c[nH]c3ccccc23)NC1=O [Example 27, cyclo(-DTrp-DAsp-Thr-DVal-Leu-)] (cyclo(L[dW][dD]T[dV])) | % | 66

[1] CCCC[C@@H]1NC(=O)[C@@H](C(C)C)NC(=O)[C@H](CO)NC(=O)[C@@H](CC(=O)O)NC(=O)[C@@H](Cc2cn(C=O)c3ccccc23)NC1=O [Example 54, cyclo(-DTrp(CHO)-DAsp-Ser-DVal-Nle-)] (cyclo([Nle][dW](For)[dD]S[dV]))
[2] CSCC[C@@H]1NC(=O)[C@@H](C(C)C)NC(=O)[C@H](CO)NC(=O)[C@@H](CC(=O)O)NC(=O)[C@@H](Cc2c[nH]c3ccccc23)NC1=O [Example 37, cyclo(-DTrp-DAsp-Ser-DVal-Met-)] (cyclo(M[dW][dD]S[dV]))
*Q* Rank 1 against 2 by their inhibition at 1.1 µM values and give the higher one. Please identify the chosen entry by its label.
*A* 1
(1: 65%, 2: 38%)
